- experiment-notes: chemical genetic growth profiling, strain panel (AID 1159580);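 further: tested at 20 µM; growth read once vehicle control cultures reached saturation at 30 °C; 1 = growth at the plate median or of vehicle wells; lower values mean less growth of the strain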
- conditions: S. cerevisiae deletion strains, growth OD, locus YLR113W, strain HOG1, hits give low values
Screen size: about 5,500 compounds; about 2,000 (36%) were called active. About 18% were inconclusive and are not listed. This is one part of the list.
readout-type: normalized growth

# compound, readout-number
rows = [
    ("CN1C[C@H](C(=O)N[C@]2(C)C[C@@]3(O)C4CCCN4C(=O)[C@H](Cc4ccccc4)N3C2=O)C=C2c3cccc4[nH]cc(c34)C[C@H]21 (stereo not given in full)", 1),
    ("CC(C)c1c(O)ccc2c1CCC1[C@@](C)(CO)CCC[C@]21C (stereo not given in full)", 0.996),
    ("CC(=O)OC(C)C[N+](C)(C)C (stereo not given)", 0.981),
    ("OC[C@H]1O[C@H](O[C@]2(CCl)O[C@H](CCl)[C@@H](O)[C@@H]2O)[C@H](O)[C@@H](O)[C@H]1Cl", 0.977),
    ("OC(COc1ccc(F)cc1)(c1ccccc1)c1ccccc1", 0.971),
    ("CC1(C)C2CC(=O)[C@]3(C)C(CC[C@@]4(C)[C@H](c5ccoc5)OC(=O)C5OC543)[C@@]2(C)[C@@H](O)C[C@H]1O (stereo not given in full)", 0.988),
    ("CC1(C)C(=O)C=C[C@@]2(C)C1CC(=O)[C@]1(C)C2CC[C@@]2(C)[C@H](c3ccoc3)OC(=O)[C@H]3O[C@]321 (stereo not given in full)", 1.01),
    ("COC1=CC(=O)C(C(=O)c2ccccc2)=CC1=O", 1.02),
    ("CC1(C)C2CC(=O)[C@]3(C)C(CC[C@@]4(C)[C@H](c5ccoc5)OC(=O)[C@H]5O[C@]543)[C@@]2(C)C(=O)C[C@H]1O (stereo not given in full)", 0.981),
    ("COc1cc(OC)c2ccc(=O)oc2c1", 1.02),
    ("NC(N)=NC(=O)c1nc(Cl)c(N2CCCCCC2)nc1N", 0.973),
    ("CC(=O)O[C@@H]1CC2C(C)(C)C(=O)C=C[C@]2(C)C2CC[C@@]3(C)[C@H](c4ccoc4)OC(=O)[C@H]4O[C@]43[C@@]21C (stereo not given in full)", 0.987),
    ("O=c1ccc2c(O)c3ccoc3cc2o1", 1),
    ("CCC(=O)O[C@H](CC(=O)O)C[N+](C)(C)C", 1.02),
    ("COc1cc2occc2c2oc(=O)ccc12", 1),
]

----------
- experiment-notes: chemical genetic growth profiling, strain panel (AID 1159580);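 further: tested at 20 µM; growth read once vehicle control cultures reached saturation at 30 °C; 1 = growth at the plate median or of vehicle wells; lower values mean less growth of the strain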
- conditions: S. cerevisiae deletion strains, growth OD, locus YDR318W, strain mcm21, hits give low values
Among all 5,500 compounds or so, about 2,000 (36%) were called active. Not shown: some 18% with an inconclusive outcome. The list shows a part of the results.
Measured normalized growth by item

# compound, normalized growth
rows = [
    ("CC1(C)C(=O)C=C[C@@]2(C)C1C[C@@H](O)[C@]1(C)C2CC[C@@]2(C)[C@H](c3ccoc3)OC(=O)[C@H]3O[C@]321 (stereo partly drawn)", 0.972),
    ("CC(C)C1COc2cc3oc(=O)ccc3cc2O1 (stereo not drawn)", 0.546),
    ("CC1(C)O[C@H]2CC(=O)OC[C@]23[C@H]2CC[C@@]4(C)[C@H](c5ccoc5)OC(=O)[C@H]5O[C@]54[C@]2(C)C(=O)C[C@@H]13", 0.994),
    ("CCCCCCCCCCCCCCCCCC(=O)OC(CC(=O)O)C[N+](C)(C)C (stereo not drawn)", 0.348),
    ("CC(=O)O[C@@H]1CC(=O)[C@@]2(C)C(CC(=O)[C@]3(C)C2CC[C@@]2(C)[C@H](c4ccoc4)OC(=O)C4OC423)C1(C)C (stereo partly drawn)", 1),
    ("C[C@@H]1CC[C@@]2(NC1)O[C@H]1C[C@H]3C4CC=C5C[C@@H](O)CC[C@]5(C)C4CC[C@]3(C)C1[C@@H]2C (stereo partly drawn)", 0.0863),
    ("CCN(Cc1ccncc1)C(=O)C(CO)c1ccccc1 (stereo not drawn)", 0.989),
    ("CC(=O)OC(C)C[N+](C)(C)C (stereo not drawn)", 1.01),
    ("NC(=O)c1ncn([C@@H]2O[C@H](CO)[C@@H](O)[C@H]2O)n1", 0.995),
    ("CN1C(C)(C)CCCC1(C)C", 0.99),
    ("COc1c(C(C)C)oc2cc3oc(=O)ccc3cc12", 0.89),
    ("OCC(O)C(O)C(O)C(O)C(O)CO (stereo not drawn)", 0.956),
    ("COc1ccc2ccc(=O)oc2c1", 1.02),
    ("CC(=O)OCC1=C(C(=O)O)N2C(=O)[C@@H](NC(=O)Cc3cccs3)[C@H]2SC1", 0.991),
    ("COc1cc2occc2c2oc(=O)ccc12", 0.948),
    ("COc1cc(OC)c2ccc(=O)oc2c1", 1),
    ("CCOCN(C(=O)CCl)c1c(C)cccc1CC", 0.985),
    ("Cc1cc(C2CCCCC2)n(O)c(=O)c1", 0.0655),
    ("C=C(C)[C@H]1COc2cc3oc(=O)ccc3cc2O1", 0.62),
    ("CC(=O)O[C@@H]1CC2C(C)(C)C(=O)C=C[C@]2(C)C2CC[C@@]3(C)[C@H](c4ccoc4)OC(=O)[C@H]4O[C@]43[C@@]21C (stereo partly drawn)", 0.994),
    ("NC(CSCSCC(N)C(=O)O)C(=O)O (stereo not drawn)", 0.981),
    ("C[C@@H]1CC[C@@]2(OC1)O[C@H]1CC3C4CC[C@H]5C[C@@H](O)CC[C@]5(C)C4CC[C@]3(C)[C@H]1[C@@H]2C (stereo partly drawn)", 0.977),
    ("C[N+](C)(C)CC(O)CC(=O)O (stereo not drawn)", 0.999),
    ("CC1(C)C(=O)C=C[C@@]2(C)C1C=C[C@]1(C)C2CC[C@@]2(C)[C@H](c3ccoc3)OC(=O)C3OC321 (stereo partly drawn)", 0.939),
    ("NS(=O)(=O)c1cc(C2(O)NC(=O)c3ccccc32)ccc1Cl (stereo not drawn)", 1.02),
    ("CC1CC[C@@]2(OC1)O[C@H]1CC3C4CC[C@@H]5C[C@@H](O)CC[C@]5(C)C4CC[C@]3(C)[C@H]1[C@@H]2C (stereo partly drawn)", 1.01),
    ("CCOC(=O)NC1=C(C2CC2)C(=O)C(NC(=O)OCC)=C(C2CC2)C1=O", 0.99),
    ("NC(=NCCC[C@H](N)C(=O)O)N[N+](=O)[O-]", 1.01),
    ("C[C@@H]1CC[C@@]2(OC1)OC1CC3C4CC=C5C[C@@H](O)CC[C@]5(C)C4CC[C@]3(C)C1[C@@H]2C (stereo partly drawn)", 0.972),
    ("NC(N)=NC(=O)c1nc(Cl)c(N2CCCCCC2)nc1N", 1.01),
    ("C=C[C@H]1CN2CC[C@H]1C[C@@H]2[C@@H](OC(=O)OCC)c1ccnc2ccc(OC)cc12", 1.01),
    ("CC1(C)C2CC(=O)[C@]3(C)C(CC[C@@]4(C)[C@H](c5ccoc5)OC(=O)C5OC543)[C@@]2(C)[C@@H](O)C[C@H]1O (stereo partly drawn)", 1),
    ("CC(C)(O)[C@@H]1Cc2cc3ccc(=O)oc3cc2O1", 1.01),
]
